molecular target: Ubiquitin carboxyl-terminal hydrolase 17-like protein 5 (Homo sapiens) (UniProt A8MUK1); assay: ubiquitin-specific protease 17 DUB inhibitors, concentration-effect assay, cell-free, verification of initial screening actives (AID 1645864); conditions: purified USP17, ubiquitin-rhodamine cleavage fluorescence, 3 h
Sequence (A8MUK1 whole entry, looked up): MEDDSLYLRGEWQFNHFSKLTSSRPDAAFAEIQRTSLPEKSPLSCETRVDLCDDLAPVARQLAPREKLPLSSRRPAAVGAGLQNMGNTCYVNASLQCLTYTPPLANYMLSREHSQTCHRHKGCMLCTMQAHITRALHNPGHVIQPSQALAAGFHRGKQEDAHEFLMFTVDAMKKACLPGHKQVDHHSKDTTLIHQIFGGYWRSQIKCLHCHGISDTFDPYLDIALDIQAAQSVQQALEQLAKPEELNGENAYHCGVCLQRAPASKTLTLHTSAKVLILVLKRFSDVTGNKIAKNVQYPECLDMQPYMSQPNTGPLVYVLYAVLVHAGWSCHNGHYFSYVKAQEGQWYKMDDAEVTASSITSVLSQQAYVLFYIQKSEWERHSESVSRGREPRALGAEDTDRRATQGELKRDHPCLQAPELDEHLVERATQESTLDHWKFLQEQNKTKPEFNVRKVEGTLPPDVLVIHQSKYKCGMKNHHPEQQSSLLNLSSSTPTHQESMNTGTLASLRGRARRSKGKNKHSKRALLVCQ
The source made the active and inactive calls.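 The calls were made as follows: active = maximal inhibition of USP17 at or above 30% in the confirmation dose-response, a value not among the printed readouts; inactive = the rest.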
Respond only with the outcome that fits, drawn from active, inactive

State the result this test recorded for `CC1CCN(c2nnc(-c3nc(C4CC4)no3)c3ccccc23)CC1` .
inactive

State the result this test recorded for `CC1=C[C@@H](C)CC[C@H]2O[C@@H](C3=C(O)C(=O)C(C)=C4O[C@](O)(C=C43)[C@@H](C)C[C@H](C)C1)[C@H](C)[C@@H](O)[C@H]2C` .
active

State the result this test recorded for `Cc1ccccc1-c1nnc(-c2ccc(C(=O)NCc3ccccc3F)cc2)o1` .
active

State the result this test recorded for CC1CCc2c(sc3ncnc(NC4CCN(CC(N)=O)CC4)c23)C1 (stereo unspecified) .
inactive

State the result this test recorded for `COc1cccc(NC(=O)Nc2nccn(-c3ccc(F)cc3)c2=O)c1` .
active

State the result this test recorded for `COC(=O)c1ccc(C(=O)Nc2cc3ccccc3cc2NC(=O)c2ccc(C(=O)OC)cc2)cc1` .
active

State the result this test recorded for `Cc1cc(Cl)ccc1Nc1nc(Nc2cccc(F)c2)nc2nccnc12` .
inactive

State the result this test recorded for CC(=O)N1CCc2cc(S(=O)(=O)NC(Cc3ccccc3)C(=O)Nc3cccc(Cl)c3C)ccc21 (stereo unspecified) .
active

State the result this test recorded for `CC(=O)CN1CC2(CCN(Cc3ccc(F)cc3)CC2)COc2ccccc2S1(=O)=O` .
inactive

State the result this test recorded for COc1ccc(Cl)c(NC(=O)C2CC(=O)Nc3cc(-c4ccccc4)nn32)c1 (stereo unspecified) .
active

State the result this test recorded for `CC(=O)c1cccc(NC(=O)c2ccc(CN(c3ccc(C)c(C)c3)S(C)(=O)=O)cc2)c1` .
inactive

State the result this test recorded for `Cc1ccc(NC(=O)c2nnn(-c3ccccc3)n2)cc1F` .
inactive

State the result this test recorded for `NS(=O)(=O)c1ccc(Cl)c(C(=O)OCc2csc(Nc3ccccc3)n2)c1` .
inactive

State the result this test recorded for CC1CCN(c2cc(-n3cnc(C(=O)N4CCCC(C)C4)c3)ncn2)CC1 (stereo unspecified) .
inactive

State the result this test recorded for `O=c1sc2ccccc2c(=O)n1Cc1cccc(C(F)(F)F)c1` .
inactive

State the result this test recorded for `Cn1cc(-c2cnc(-c3cccc(F)c3)nc2)cc1C(=O)NCc1cccnc1` .
active

State the result this test recorded for `CC1(C)OC2=C(C(=O)c3cc(O)cc(O)c3C2=O)c2cc(CO)c(O)cc21` .
active

State the result this test recorded for `O=C(Cc1ccc(Cl)c(Cl)c1)OCC(=O)c1c[nH]c2ccccc12` .
inactive

State the result this test recorded for `Cc1ccc2c(c1)-c1c(c(C(=O)N3CCN(c4ccccc4)CC3)nn1C)CS2` .
inactive

State the result this test recorded for Cc1nn(-c2ccc(Cl)cc2)c2[nH]c(=O)c(CNCC3CCCO3)cc12 (stereo unspecified) .
inactive

State the result this test recorded for `COCCNC(=O)c1ccc(-c2ccc(N3CCCCC3)nc2)cc1` .
active

State the result this test recorded for O=C1NCCCC1Cc1ccc(-c2cccc(C(=O)N3CCc4ccccc4C3)c2)cc1 (stereo unspecified) .
active

State the result this test recorded for `Cc1ccc(-n2c(=O)[nH]c3c(C(N)=O)nc(-c4cccnc4)nc32)cc1` .
active

State the result this test recorded for `Cc1cc(-c2ccnc3c(C#N)cnn23)c(C)s1` .
active

State the result this test recorded for Cc1nc(Nc2ncc(C)s2)cc(C2CN(C(=O)Cc3ccccc3)CCO2)n1 (stereo unspecified) .
inactive

State the result this test recorded for `CC(=O)c1sc(NC(=O)c2ccccc2-c2ccc(C(F)(F)F)cc2)nc1C` .
active

State the result this test recorded for `CC(=O)Nc1ccc(NC(=O)c2cc(-c3cc(C)cc(C)c3O)n[nH]2)cc1` .
active

State the result this test recorded for CCCCCCCc1cc(O)cc(OC(=O)c2c(CCCCCCC)cc(O)cc2O[C@H]2O[C@H](C(O)CO)[C@@H](O)[C@@H]2O)c1 (stereo partly specified) .
active

State the result this test recorded for `Nc1c(-c2ccc(Cl)cc2)cnc2nc(Sc3ncc(C(F)(F)F)cc3Cl)nn12` .
inactive

State the result this test recorded for `Cc1csc2ncc(C(=O)N3CCN(c4ccccc4F)CC3)c(=O)n12` .
inactive

State the result this test recorded for `CCOc1ccc(-c2noc(-c3nn(-c4cccc(OC)c4)ccc3=O)n2)cc1` .
active

State the result this test recorded for `Cc1ccc(-c2nc(-c3cccs3)cc(C(F)(F)F)c2C#N)cc1` .
inactive

State the result this test recorded for O=C(Nc1ccccc1)c1ccc2c(c1)CC(c1ccccc1)OC2=O (stereo unspecified) .
active

State the result this test recorded for COc1ccc(C(C(=O)NC2CCCCC2)N(C(=O)CCCC(=O)Nc2ccccn2)c2ccccc2C)cc1 (stereo unspecified) .
active

State the result this test recorded for `Cc1cccc(NC(=O)CN2C(=O)COc3cc(S(=O)(=O)N4CCCC4)ccc32)c1C` .
active

State the result this test recorded for `Cc1cc(C(=O)NC2(O)C(=O)c3ccccc3C2=O)n(C)n1` .
active

State the result this test recorded for `Cc1ccc2c(c1C)NC(=O)[C@]21[C@@H]2C(=O)N(c3cc(Cl)ccc3Cl)C(=O)[C@@H]2[C@@H]2CCCN21` .
inactive

State the result this test recorded for `COCCNC(=O)Cn1c(=O)n(Cc2ccccc2)c(=O)c2c3c(sc21)CCC3` .
active

State the result this test recorded for CCn1c(CN2CCCC(c3nc(-c4cccnc4)n[nH]3)C2)nc2ccccc21 (stereo unspecified) .
inactive

State the result this test recorded for `Cn1nc(-c2nc(-c3ccccc3)no2)c2c1CCN(C(=O)C1CC1)C2` .
inactive

State the result this test recorded for `COc1ccc(NC(=O)c2ccc(Nc3nnc(C)c4ccccc34)cc2)cc1` .
inactive
